Details: in acetonitrile, 308.15 K
measured_quantity: solubility (mole fraction)
Answer using only a numeral; do not append any unit.

Query: Check the records and state solubility (mole fraction) for "CNC(=O)NC"
Response: 0.216

###

Details: in n-butyl acetate, 323.15 K
measured_quantity: solubility (mole fraction)
Answer using only a numeral; do not append any unit.

Query: Check the records and state solubility (mole fraction) for "CNC(=O)NC"
Response: 0.148

###

Conditions: in sec-butanol, 303.15 K
measured_quantity: solubility (mole fraction)
Answer using only a numeral; do not append any unit.

Query: Check the records and state solubility (mole fraction) for "CNC(=O)NC"
Response: 0.412

###

Details: in sec-butanol, 323.15 K
measured_quantity: solubility (mole fraction)

Query: Check the records and state solubility (mole fraction) for "CNC(=O)NC"
Response: 0.523

###

Conditions: in acetone, 288.15 K
measured_quantity: solubility (mole fraction)
Answer using only a numeral; do not append any unit.

Query: Check the records and state solubility (mole fraction) for "CNC(=O)NC"
Response: 0.129

###

Conditions: in acetonitrile, 288.15 K
measured_quantity: solubility (mole fraction)
Answer using only a numeral; do not append any unit.

Query: Check the records and state solubility (mole fraction) for "CNC(=O)NC"
Response: 0.102

###

Conditions: in sec-butanol, 288.15 K
measured_quantity: solubility (mole fraction)
Answer using only a numeral; do not append any unit.

Query: Check the records and state solubility (mole fraction) for "CNC(=O)NC"
Response: 0.325

###

Conditions: in n-butyl acetate, 308.15 K
measured_quantity: solubility (mole fraction)
Answer using only a numeral; do not append any unit.

Query: Check the records and state solubility (mole fraction) for "CNC(=O)NC"
Response: 0.0602

###

Details: in n-butyl acetate, 298.15 K
measured_quantity: solubility (mole fraction)

Query: Check the records and state solubility (mole fraction) for "CNC(=O)NC"
Response: 0.0296

###

Settings: in n-butyl acetate, 303.15 K
measured_quantity: solubility (mole fraction)
Answer using only a numeral; do not append any unit.

Query: Check the records and state solubility (mole fraction) for "CNC(=O)NC"
Response: 0.0408

###

Conditions: in water, 293.15 K
measured_quantity: solubility (mole fraction)
Answer using only a numeral; do not append any unit.

Query: Check the records and state solubility (mole fraction) for "CNC(=O)NC"
Response: 0.38

###

Conditions: in acetone, 328.15 K
measured_quantity: solubility (mole fraction)
Answer using only a numeral; do not append any unit.

Query: Check the records and state solubility (mole fraction) for "CNC(=O)NC"
Response: 0.376

###

Details: in water, 303.15 K
measured_quantity: solubility (mole fraction)
Answer using only a numeral; do not append any unit.

Query: Check the records and state solubility (mole fraction) for "CNC(=O)NC"
Response: 0.436

###

Conditions: in isopropanol, 328.15 K
measured_quantity: solubility (mole fraction)
Answer using only a numeral; do not append any unit.

Query: Check the records and state solubility (mole fraction) for "CNC(=O)NC"
Response: 0.533

###

Conditions: in ethyl acetate, 328.15 K
measured_quantity: solubility (mole fraction)
Answer using only a numeral; do not append any unit.

Query: Check the records and state solubility (mole fraction) for "CNC(=O)NC"
Response: 0.271

###

Conditions: in sec-butanol, 318.15 K
measured_quantity: solubility (mole fraction)
Answer using only a numeral; do not append any unit.

Query: Check the records and state solubility (mole fraction) for "CNC(=O)NC"
Response: 0.494

###

Conditions: in acetone, 298.15 K
measured_quantity: solubility (mole fraction)
Answer using only a numeral; do not append any unit.

Query: Check the records and state solubility (mole fraction) for "CNC(=O)NC"
Response: 0.177

###

Conditions: in isopropanol, 308.15 K
measured_quantity: solubility (mole fraction)
Answer using only a numeral; do not append any unit.

Query: Check the records and state solubility (mole fraction) for "CNC(=O)NC"
Response: 0.416

###

Details: in isopropanol, 288.15 K
measured_quantity: solubility (mole fraction)
Answer using only a numeral; do not append any unit.

Query: Check the records and state solubility (mole fraction) for "CNC(=O)NC"
Response: 0.331

###

Settings: in sec-butanol, 293.15 K
measured_quantity: solubility (mole fraction)
Answer using only a numeral; do not append any unit.

Query: Check the records and state solubility (mole fraction) for "CNC(=O)NC"
Response: 0.353

###

Conditions: in acetone, 303.15 K
measured_quantity: solubility (mole fraction)
Answer using only a numeral; do not append any unit.

Query: Check the records and state solubility (mole fraction) for "CNC(=O)NC"
Response: 0.202

###

Details: in isopropanol, 303.15 K
measured_quantity: solubility (mole fraction)
Answer using only a numeral; do not append any unit.

Query: Check the records and state solubility (mole fraction) for "CNC(=O)NC"
Response: 0.39
